target: UniProtKB P20701; experiment: Inhibition of intercellular adhesion molecule-1 (ICAM-1) binding to recombinant LFA-1, range(120-140)
property: pIC50
// field semantics: pIC50 = negative decimal log of concentration (mol/L)

Query :: Answer with the recorded pIC50 for the compound listed here: `CC(=O)N1CCN(C(=O)/C=C/c2ccc(Sc3ccc4c(c3)OCCO4)c([N+](=O)[O-])c2)CC1`
Result :: 6.86

----------
molecular target: Integrin alpha-L (Homo sapiens, UniProt P20701); assay: Inhibition of intercellular adhesion molecule-1 (ICAM-1) binding to recombinant LFA-1, range(5-5)
Sequence (P20701 whole entry): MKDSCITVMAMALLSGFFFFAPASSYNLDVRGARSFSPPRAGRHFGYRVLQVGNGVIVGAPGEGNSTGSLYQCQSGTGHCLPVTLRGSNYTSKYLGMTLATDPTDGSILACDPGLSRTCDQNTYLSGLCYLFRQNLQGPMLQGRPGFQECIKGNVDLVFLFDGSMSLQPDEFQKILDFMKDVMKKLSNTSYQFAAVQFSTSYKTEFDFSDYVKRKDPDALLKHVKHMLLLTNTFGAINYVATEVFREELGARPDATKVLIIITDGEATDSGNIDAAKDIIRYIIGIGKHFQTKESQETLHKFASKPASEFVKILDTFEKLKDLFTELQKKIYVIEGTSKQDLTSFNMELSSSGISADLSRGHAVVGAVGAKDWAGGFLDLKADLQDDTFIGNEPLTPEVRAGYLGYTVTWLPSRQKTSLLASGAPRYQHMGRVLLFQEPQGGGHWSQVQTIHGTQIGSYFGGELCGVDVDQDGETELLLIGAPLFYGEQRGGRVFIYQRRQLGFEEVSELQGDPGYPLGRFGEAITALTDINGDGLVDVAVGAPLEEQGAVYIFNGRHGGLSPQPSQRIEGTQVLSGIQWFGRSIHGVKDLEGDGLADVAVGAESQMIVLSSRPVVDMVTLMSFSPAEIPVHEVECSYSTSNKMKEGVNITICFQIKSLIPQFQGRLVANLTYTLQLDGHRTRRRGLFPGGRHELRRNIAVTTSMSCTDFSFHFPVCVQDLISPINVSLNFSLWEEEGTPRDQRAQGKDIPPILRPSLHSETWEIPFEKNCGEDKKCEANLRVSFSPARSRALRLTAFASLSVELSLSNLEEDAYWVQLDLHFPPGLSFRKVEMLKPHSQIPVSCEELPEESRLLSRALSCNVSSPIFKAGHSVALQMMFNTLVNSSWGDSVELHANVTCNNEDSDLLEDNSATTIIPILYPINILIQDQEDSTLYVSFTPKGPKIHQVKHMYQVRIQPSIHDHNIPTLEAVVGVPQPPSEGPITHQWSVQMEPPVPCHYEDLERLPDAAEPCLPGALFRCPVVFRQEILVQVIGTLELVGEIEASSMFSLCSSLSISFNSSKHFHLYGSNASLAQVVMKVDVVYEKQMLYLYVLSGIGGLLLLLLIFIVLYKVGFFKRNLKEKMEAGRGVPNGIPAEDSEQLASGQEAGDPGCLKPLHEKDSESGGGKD
property: pIC50
Reminder that pIC50 means the negative base-10 logarithm of the concentration expressed in mol/L.

Query :: Given the compound `Cn1ccc2cc(Sc3ccc(/C=C/C(=O)N4CCC(C(=O)O)CC4)c(C(F)(F)F)c3C(F)(F)F)ccc21` , write its reported pIC50.
Result :: 8.30

----------
biological target: UniProt P20701; assay: Inhibition of intercellular adhesion molecule-1 (ICAM-1) binding to recombinant LFA-1, range (2500-11500)
property: IC50 (µM)
Numeric only. Scale: µM

Query :: Give IC50 for the following compound: `COc1ccccc1Sc1ccc(/C=C/C(=O)N2CCN(C(C)=O)CC2)c(F)c1`
Result :: 3.9

----------
target: Integrin alpha-L (Homo sapiens, UniProt P20701); assay: Inhibition of intercellular adhesion molecule-1 (ICAM-1) binding to recombinant LFA-1, range(50-60)
property: IC50 (nM)
Write the number in nM without appending the unit.

Query :: Retrieve IC50 measured for `CC(=O)N1CCN(C(=O)/C=C/c2ccc(Sc3ccc4c(c3)OCCO4)c(C(F)(F)F)c2)CC1` and print it.
Result :: 55

----------
target: Integrin alpha-L (Homo sapiens, UniProt P20701); experiment: Inhibition of intercellular adhesion molecule-1 (ICAM-1) binding to recombinant LFA-1, range (80-110)
property: pIC50
Interpret pIC50 as the negative base-10 log of the concentration measured in mol/L.

Query :: Tell me pIC50 reported for `COc1ccccc1Sc1ccc(/C=C/C(=O)N2CCOCC2)c(C)c1C`
Result :: 7.05

----------
target: Integrin alpha-L (Homo sapiens)
property: pIC50
Interpret pIC50 as the negative base-10 log of the concentration measured in mol/L.

Query :: Provide the reported pIC50 (system: Integrin alpha-L (Homo sapiens)) for `Cn1ccc2cc(Sc3ccc(/C=C/C(=O)N4CCC(C(=O)O)CC4)c(Cl)c3Cl)ccc21`
Result :: 8.22

----------
molecular target: Integrin alpha-L (Homo sapiens); assay: Inhibition of intercellular adhesion molecule-1 (ICAM-1) binding to recombinant LFA-1, range(40-60)
property: IC50 (nM)
Unit nM implied. Number only.

Query :: Fill in reported IC50 for this entry: `O=C(O)C1CCN(C(=O)/C=C/c2ccc(Sc3ccc4c(c3)OCCO4)c(C(F)(F)F)c2)CC1`
Result :: 50

----------
biological target: Integrin alpha-L (Homo sapiens, UniProt P20701); assay: Inhibition of intercellular adhesion molecule-1 (ICAM-1) binding to recombinant LFA-1, range(6-13)
property: IC50
Include the unit right after the number.

Query :: Provide IC50, recorded with Integrin alpha-L (Homo sapiens, UniProt P20701), of `COc1ccccc1Sc1ccc(/C=C/C(=O)N2CCOCC2)c(Cl)c1Cl`
Result :: 10 nM

----------
target: Intercellular adhesion molecule (ICAM-1), Integrin alpha-L/beta-2 (Homo sapiens, UniProt P05107+P20701)
Sequence (P20701 whole entry): as above
Sequence (P05362 whole entry, further chain): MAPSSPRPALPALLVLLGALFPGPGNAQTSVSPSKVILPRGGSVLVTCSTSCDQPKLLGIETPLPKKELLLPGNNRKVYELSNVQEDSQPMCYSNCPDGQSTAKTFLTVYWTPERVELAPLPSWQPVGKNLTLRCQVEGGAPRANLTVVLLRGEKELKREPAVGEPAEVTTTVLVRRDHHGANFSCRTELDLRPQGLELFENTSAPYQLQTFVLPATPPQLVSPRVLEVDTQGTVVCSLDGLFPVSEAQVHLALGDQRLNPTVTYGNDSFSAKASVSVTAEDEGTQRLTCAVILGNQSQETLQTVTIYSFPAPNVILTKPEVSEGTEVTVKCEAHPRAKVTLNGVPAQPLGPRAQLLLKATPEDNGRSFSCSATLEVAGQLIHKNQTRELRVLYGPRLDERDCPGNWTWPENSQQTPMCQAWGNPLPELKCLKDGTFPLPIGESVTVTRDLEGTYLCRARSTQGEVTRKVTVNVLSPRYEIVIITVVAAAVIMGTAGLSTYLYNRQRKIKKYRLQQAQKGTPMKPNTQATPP
Sequence (P05107 whole entry): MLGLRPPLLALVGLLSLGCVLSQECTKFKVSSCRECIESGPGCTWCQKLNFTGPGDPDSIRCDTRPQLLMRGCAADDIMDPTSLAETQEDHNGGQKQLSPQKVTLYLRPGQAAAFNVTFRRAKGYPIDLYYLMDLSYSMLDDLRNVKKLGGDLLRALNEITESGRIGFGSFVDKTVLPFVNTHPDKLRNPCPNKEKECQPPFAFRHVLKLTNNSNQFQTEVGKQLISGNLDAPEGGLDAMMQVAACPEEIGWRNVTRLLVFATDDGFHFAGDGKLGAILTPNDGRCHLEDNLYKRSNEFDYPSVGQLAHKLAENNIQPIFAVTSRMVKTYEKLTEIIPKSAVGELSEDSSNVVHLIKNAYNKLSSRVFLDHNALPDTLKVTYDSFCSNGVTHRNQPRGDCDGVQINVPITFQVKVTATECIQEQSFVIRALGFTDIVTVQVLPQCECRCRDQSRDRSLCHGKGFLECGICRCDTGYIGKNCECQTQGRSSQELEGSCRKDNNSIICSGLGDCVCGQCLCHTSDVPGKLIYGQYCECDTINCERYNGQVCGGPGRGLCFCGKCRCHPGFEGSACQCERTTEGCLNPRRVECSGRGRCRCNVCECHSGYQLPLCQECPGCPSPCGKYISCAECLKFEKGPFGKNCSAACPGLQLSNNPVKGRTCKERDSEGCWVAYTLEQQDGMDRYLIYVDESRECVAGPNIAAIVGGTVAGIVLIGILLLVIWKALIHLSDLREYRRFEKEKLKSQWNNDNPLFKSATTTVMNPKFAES
property: pIC50
Convention used: pIC50 is expressed as -log10 of the molar concentration.

Query :: Quick one: give measured pIC50 for `Cn1ccc2cc(Sc3ccc(/C=C/C(=O)N4CCC(C(=O)O)CC4)c(Cl)c3Cl)ccc21`
Result :: 8.40

Hello, the source for this data is ChEMBL document CHEMBL1134304, in case you need it.
